Where these numbers come from: PubChem BioAssay (NCATS)

assayedSystem: Glucocorticoid receptor (Homo sapiens) (UniProt P04150)
Sequence (P04150 whole entry, looked up): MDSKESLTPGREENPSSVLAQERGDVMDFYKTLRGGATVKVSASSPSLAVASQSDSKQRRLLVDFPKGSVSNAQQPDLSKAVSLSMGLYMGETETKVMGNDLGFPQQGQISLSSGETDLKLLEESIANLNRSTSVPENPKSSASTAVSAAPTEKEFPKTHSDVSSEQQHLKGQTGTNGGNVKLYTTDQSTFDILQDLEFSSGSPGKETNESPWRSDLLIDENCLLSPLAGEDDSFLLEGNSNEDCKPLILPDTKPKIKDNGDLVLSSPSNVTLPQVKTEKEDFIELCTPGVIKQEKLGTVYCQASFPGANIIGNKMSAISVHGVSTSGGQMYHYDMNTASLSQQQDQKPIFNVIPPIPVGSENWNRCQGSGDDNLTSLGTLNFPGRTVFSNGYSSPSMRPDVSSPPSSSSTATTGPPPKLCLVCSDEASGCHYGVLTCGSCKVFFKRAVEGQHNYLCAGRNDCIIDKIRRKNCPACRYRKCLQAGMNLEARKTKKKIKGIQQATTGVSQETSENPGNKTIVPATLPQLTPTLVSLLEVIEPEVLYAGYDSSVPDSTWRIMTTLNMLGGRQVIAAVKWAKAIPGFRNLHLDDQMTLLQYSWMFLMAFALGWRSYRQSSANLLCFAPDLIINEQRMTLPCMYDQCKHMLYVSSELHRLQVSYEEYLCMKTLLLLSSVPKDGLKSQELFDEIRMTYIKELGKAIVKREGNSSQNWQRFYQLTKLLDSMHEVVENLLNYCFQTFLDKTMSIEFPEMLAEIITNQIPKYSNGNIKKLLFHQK
test: GR-GFP Redistribution (AID 450); also: potency is read from the fitted curve at half-maximal effect
measurementConditions: U2OS GR-GFP nuclear translocation, laser cytometry, 2 h
Activity calls are given as the source filed them.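 The calls were made as follows: active = compounds whose dose series gives a full or clear partial fitted curve of increased nuclear translocation; inconclusive = weak partial curve or effect only at the top dose; inactive = no dose-dependent translocation response.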
This section presents compounds with their documented Potency values.

Answered examples (5):
CS(=O)(=O)Nc1cccc(-c2cncnc2Nc2ccc(F)cc2)c1
> 46 µM (inactive)
Cc1noc(C)c1-c1cc(N(C)C)ncn1
> 46 µM (inactive)
c1cncc(CNc2ncnc3ccc(-c4ccoc4)cc23)c1
> 46 µM (inactive)
Cc1nc2cnc(N(C)C)nc2n(C[C@H]2CCCO2)c1=O
> 9.22 µM (inactive)
CN(C)c1ncc2nc(-c3cc(F)cc(F)c3)c(=O)n(C[C@H]3CCCO3)c2n1
> 9.22 µM (inactive)

What value of Potency has been reported for the following compound? COCCn1c(=O)cnc2cnc(Oc3ccccc3)nc21
> 9.22 µM (inactive)

---

assayedSystem: Cytochrome P450 2D6 (Homo sapiens)
test: qHTS Assay for Inhibitors and Substrates of Cytochrome P450 2D6 (AID 891); also: nearly all actives have a fitted effect of over 60% in size
measurementConditions: recombinant CYP2D6, luciferin-ME EGE luminescence; series mostly up to 57.1 µM
Inconclusive results are not listed. Calls of active or inactive are those of the source. Calls follow the shape of the dose curve; as a rule, active = well fitted inhibition curve with a large enough effect; inconclusive = small, poorly fitted or top-dose-only effect; inactive = no such curve, though single readings can be large or run the other way.
The reply should name one outcome from Y for active, N for inactive

N=C1Sc2ccccc2C2=NCCCN12
N
COc1ccc(CNc2ncnc3ccc(-c4ccccc4CN(C)C)cc23)c(OC)c1
Y
CS(=O)(=O)N1CCC2(CC1)CN(Cc1cc(C(F)(F)F)cc(C(F)(F)F)c1)C2
Y

Next:
Assay outcome for COc1ccccc1CN1CC[C@@]2(CCCN(C(C)=O)C2)C1 : what was it?
Y

---

assayedSystem: Cytochrome P450 3A4 (Homo sapiens) (UniProt P08684)
Sequence (P08684 whole entry, looked up): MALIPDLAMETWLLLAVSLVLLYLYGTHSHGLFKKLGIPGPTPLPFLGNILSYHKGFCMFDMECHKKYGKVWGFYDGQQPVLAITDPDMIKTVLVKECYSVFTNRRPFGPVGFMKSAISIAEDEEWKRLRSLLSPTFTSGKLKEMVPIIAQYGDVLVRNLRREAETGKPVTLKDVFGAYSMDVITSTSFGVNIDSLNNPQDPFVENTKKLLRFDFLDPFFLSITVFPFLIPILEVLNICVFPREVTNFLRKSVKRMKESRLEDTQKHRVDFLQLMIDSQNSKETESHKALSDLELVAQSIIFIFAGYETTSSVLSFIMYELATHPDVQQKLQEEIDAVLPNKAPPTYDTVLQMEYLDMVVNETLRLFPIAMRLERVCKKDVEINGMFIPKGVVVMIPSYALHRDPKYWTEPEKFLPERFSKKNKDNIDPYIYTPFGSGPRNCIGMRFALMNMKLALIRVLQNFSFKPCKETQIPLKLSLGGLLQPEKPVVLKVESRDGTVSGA
test: qHTS Assay for Activators of Cytochrome P450 3A4 (AID 885); also: nearly all actives have a fitted effect of over 65% in size
measurementConditions: recombinant CYP3A4, Luciferin-PPXE luminescence, 60 min; series mostly up to 57.1 µM
Active and inactive are the calls of the source. Calls come from the whole dose curve; as a rule, active = well fitted activation curve with a large enough effect; inconclusive = small, poorly fitted or top-dose-only effect; inactive = no such curve, though single readings can be large or run the other way.
The reply should name one outcome from active, inactive

Record excerpt, results attached:
CCCn1c(C)nc2c(N3CCCN(Cc4ccccc4)CC3)nc(C)nc21
inactive
COc1ccc(CNc2ncnc3ccc(-c4cccnc4)cc23)c(OC)c1
inactive
Clc1ccccc1-c1cncnc1NCc1cccs1
inactive

Next:
Assay outcome for CCN(CC)CCn1c(-c2ccccc2)nc2c(NCCOC)nc(C)nc21 : what was it?
inactive

---

test: Confirmatory qHTS for small molecule stabilizers of the endoplasmic reticulum resident proteome: Secreted ER Calcium Modulated Protein (SERCaMP) assay (AID 1508628); also: nearly all actives have a fitted effect of over 40% in size; also: potency is read from the fitted curve at half-maximal effect
measurementConditions: SERCaMP secreted luciferase ER calcium/proteostasis reporter; series mostly up to 76.3 µM
From the text: Assay Provider: Brandon K. Harvey Ph.D. National Institute on Drug Abuse, National Institutes of Health, Baltimore, MD Endoplasmic reticulum (ER) dysregulation is associated with human pathologies including neurodegenerative, cardiovascular, muscular, and diabetic conditions. […] To identify such compounds, we performed a quantitative high-throughput screen (qHTS) using the SERCaMP assay, which monitors secretion of ER resident proteins triggered by calcium depletion. […]
Inconclusive results are not listed. Activity calls are given as the source filed them. The call rests on the fitted dose curve; in most records, active means well fitted inhibition curve with a large enough effect; inconclusive means small, poorly fitted or top-dose-only effect; inactive means no such curve, though single readings can be large or run the other way.
measurementType: Potency

Answered examples (5):
COc1ccc(NC(=O)N2CCC3(CC2)CCN(S(=O)(=O)c2ccccc2)CC3)cc1
inactive
CN1CCN(c2ncc3nc(-c4ccccc4)c(=O)n(-c4ccccc4)c3n2)CC1
25.1 µM (active)
Cc1nc2cnc(N3CCN(C)CC3)nc2n(Cc2cccs2)c1=O
39.8 µM (active)
Cc1noc(C)c1-c1nc(N2CCNCC2)c2ccccc2n1
14.1 µM (active)
N#CCCn1c(=O)c(CCc2ccccc2)nc2cnc(OCc3ccccc3)nc21
31.6 µM (active)

What value of Potency has been reported for the following compound? O=C(c1cc(C(F)(F)F)cc(C(F)(F)F)c1)N1CCC2(CC1)CN(c1ccccn1)C2
inactive

What value of Potency has been reported for the following compound? Cc1nc2cnc(N3CCNCC3)nc2n(CCc2ccccc2)c1=O
31.6 µM (active)

What value of Potency has been reported for the following compound? CCNc1ncc2nc(CCc3ccccc3)c(=O)n(-c3ccccc3)c2n1
35.5 µM (active)
